Provide the recorded In vitro activity (%) compared with native peptide, vs Glucagon for the entries that follow.
target: human GCG receptor (human, UniProt P47871 26-477)
Sequence (P47871 26-477): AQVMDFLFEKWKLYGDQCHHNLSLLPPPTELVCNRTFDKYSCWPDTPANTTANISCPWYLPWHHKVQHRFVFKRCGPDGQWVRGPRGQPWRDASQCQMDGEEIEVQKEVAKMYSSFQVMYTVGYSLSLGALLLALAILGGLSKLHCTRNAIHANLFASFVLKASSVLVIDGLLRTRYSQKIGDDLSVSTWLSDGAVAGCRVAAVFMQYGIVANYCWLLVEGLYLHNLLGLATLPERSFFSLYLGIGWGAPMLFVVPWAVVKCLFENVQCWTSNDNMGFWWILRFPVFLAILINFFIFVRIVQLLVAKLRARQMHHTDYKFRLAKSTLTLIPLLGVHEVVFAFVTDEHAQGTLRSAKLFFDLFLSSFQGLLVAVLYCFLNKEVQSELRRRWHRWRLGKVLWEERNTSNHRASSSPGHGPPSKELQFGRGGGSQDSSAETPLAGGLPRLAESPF
assayProtocol: cell-based or functional assay
Bridge positions count the residues as written; N and C are the ends. Square brackets hold non-standard residues; d marks the D form. Ends that are not written are not given here. Aib = CC(C)(N)C(=O)O
Answers are plain numbers, in %.

H[Aib]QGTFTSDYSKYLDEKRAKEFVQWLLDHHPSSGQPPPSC (bridge 16-20) [triple agonist of SEQ ID NO: 50] ... 50.5
Y[Aib]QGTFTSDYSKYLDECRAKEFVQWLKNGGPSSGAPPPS (bridge 16-20) [triple agonist of SEQ ID NO: 24] ... 9.3
Y[Aib]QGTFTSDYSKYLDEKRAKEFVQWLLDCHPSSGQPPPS (bridge 16-20) [triple agonist of SEQ ID NO: 97] ... 62.8

# query: In vitro activity (%) compared with native peptide, vs Glucagon of entry Y[Aib]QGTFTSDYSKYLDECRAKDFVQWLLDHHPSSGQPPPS (bridge 16-20) [triple agonist of SEQ ID NO: 66]
172
